Tested on: ATP;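 further: ATP exposure 15 min at 22 °C before imaging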
ASSAY EXPLANATION: switch fluorescence ratio, 500 uM ATP over buffer (Cy3 cluster intensity, sum of 5 cycles each) (fold (ratio)); higher = stronger signal-on switching upon ATP binding; sequences stand for … in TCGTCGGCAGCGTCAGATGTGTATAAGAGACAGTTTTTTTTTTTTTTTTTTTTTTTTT…TC
CONDITION NOTES: aptamer strand: ATP DNA aptamer (quencher-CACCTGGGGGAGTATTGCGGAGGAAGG + anchor), 100 nM annealed; ATP concentration: 500 uM
READOUT LABEL: switch fluorescence ratio

# QUERY SEQUENCE, EXPERIMENTAL TARGET, RESULT NUMBER
data = [
    ("ATGTAGGGGT", "ATP", 1.04),
    ("AGAAAAGTGG", "ATP", 0.985),
    ("TCCGTTTTTT", "ATP", 1.04),
    ("AATAGTTATT", "ATP", 0.979),
    ("CAGTGTGGTG", "ATP", 1),
    ("GCGGTGGGGG", "ATP", 1.03),
    ("TGTGTTACGG", "ATP", 0.984),
    ("TCTCTGGCAT", "ATP", 1.79),
    ("TTCAGCCGAG", "ATP", 1.02),
    ("AAAGGGCCAG", "ATP", 1.02),
    ("CAAATCGTTG", "ATP", 0.979),
    ("CGGTTAGGCT", "ATP", 1.06),
    ("ATGGTAAGGG", "ATP", 0.991),
    ("ACGACCATCG", "ATP", 1.01),
    ("GCCAGTATGT", "ATP", 1.08),
    ("GTTTGGTGC", "ATP", 1.02),
    ("TATTTTGGGG", "ATP", 0.988),
    ("TTGGGAAGGT", "ATP", 0.982),
    ("TTTCATACTC", "ATP", 1.29),
    ("AAACATAGGA", "ATP", 0.992),
    ("TTCTCTTGTT", "ATP", 1),
    ("AGACATATTT", "ATP", 1),
    ("GGATAACTCT", "ATP", 1.01),
    ("TTTATAGGGG", "ATP", 1.08),
    ("CGGGGTGCTT", "ATP", 1.01),
    ("AATAGGGTCG", "ATP", 0.975),
    ("TAATTTTCGT", "ATP", 1.02),
    ("TTTAGTACGC", "ATP", 1.05),
    ("AGCGGATTGG", "ATP", 1.02),
    ("TGTTGAAAGG", "ATP", 0.995),
    ("ATGTGGCCAC", "ATP", 1.06),
    ("TTATTGGGAC", "ATP", 0.972),
    ("GGGTCAAGGA", "ATP", 0.995),
    ("ATTCTTTGG", "ATP", 0.968),
    ("CAGTTCATGA", "ATP", 1.01),
    ("TTATGCAAAA", "ATP", 1.14),
    ("TCGTTCCGGT", "ATP", 1.02),
    ("TATTAACTAG", "ATP", 1.02),
    ("ACTCGAGGTT", "ATP", 1.05),
    ("GTCGAGAGAA", "ATP", 1.01),
    ("GGGGGTGGGC", "ATP", 1.03),
    ("GGTTTCTTCG", "ATP", 1.09),
    ("GGGTACAGTT", "ATP", 1.01),
]
